Could you please report measured GI50 for the items listed next?
System: NCI-H23
experimentalDetails: NCI tumour cell line growth inhibition, 48 h
The source made the active and inactive calls. Cut-off read from the data, not from the text of the source: active = GI50 up to about 1.1 µM and inactive = higher.

O=C1CSc2ccnc(=O)n21 :: > 100 µM (inactive)

Give me GI50 for each of these molecules, listed below.
1. O=C(c1ccsc1)c1cc2c(s1)C(=O)c1ccsc1C2=O
2. C=CCOC(=O)[C@@H]1C[C@@H](OC(C)(C)C)CN1C(=O)[C@@H]1[C@H]2OC(C)(C)O[C@H]2CN1C(=O)OCC1c2ccccc2-c2ccccc21
3. CCOC(=O)C(=O)N/N=C1\C(=O)Nc2ccccc21
4. Cn1c(=O)c(Cl)c(N=[N+]=[N-])c2ccccc21

Resp:
0.137 µM (active)
17.6 µM (inactive)
> 100 µM (inactive)
> 100 µM (inactive)

Req: GI50 for N/N=C(\C(=O)Nc1ccc([N+](=O)[O-])cc1)C(C1=Nc2cc([N+](=O)[O-])ccc2NC1)[N+](=O)[O-] (stereo unspecified) ?
Resp: > 100 µM (inactive)

---

Test system: BT-549
experimentalDetails: NCI tumour cell line growth inhibition, 48 h
Calls of active or inactive are those of the source. Cut-off read from the data, not from the text of the source: active = GI50 up to about 1.1 µM and inactive = higher. Where a SMILES comes first, the peptide text is derived from it. [ ]: non-standard residue; d: D form. The star is where a group is joined. Phe(4-NO2) = N[CH](Cc1ccc([N+](=O)[O-])cc1)C(=O)O; Boc = CC(C)(C)OC(=O)*
Please go through the items and note down their GI50.

COC(=O)c1cc(NC(=O)Cn2c3ccccc3c3ccccc32)cn1C :: 24.9 µM (inactive)
C=CCOC(=O)[C@@H]1C[C@@H](OC(C)(C)C)CN1C(=O)[C@@H]1[C@H]2OC(C)(C)O[C@H]2CN1C(=O)OCC1c2ccccc2-c2ccccc21 :: 20.1 µM (inactive)
CCCCCCc1cc2cc(-c3csc(CC#N)n3)c(=O)oc2cc1O :: 6.17 µM (inactive)
O=C1c2c(O)cc(O)cc2OC(c2ccc(O)cc2O)C1O (configuration not stated) :: > 100 µM (inactive)
O=C(O)C(NCc1ccccc1)C(NCc1ccccc1)C(=O)O (configuration not stated) :: > 100 µM (inactive)

Dear colleague, could you please provide GI50 for the compounds listed below?
1. C[C@]12CC[C@H](O)C[C@H]1CC[C@@H]1[C@@H]2CC[C@]2(C)[C@@H](C3=CC(=O)OC3)[C@@H](O)C[C@]12O
2. S=C(NN=C1NCCCN1)Nc1ccccc1
3. c1cc2cc(c1)CN1CCNCCN(CCNCC1)Cc1cccc(c1)CN1CCNCCN(CCNCC1)C2
4. Cc1ccc(S(=O)(=O)N2CCCC2C(=O)O[C@H]2CC[C@H]3CC=C[C@H]32)cc1 (some centres not stated)
5. O=C(SCc1cccc2ccccc12)c1ccc(Cl)cc1
6. OC1(c2ccc(Cl)cc2)c2ccccc2-c2nc3ccccc3n21 (configuration not stated)
7. O=C1CCC(N2C(=O)c3ccccc3C2=O)C(=O)N1 (configuration not stated) [THALIDOMIDE]

Resp:
1.89 µM (inactive)
> 100 µM (inactive)
> 100 µM (inactive)
47.4 µM (inactive)
> 100 µM (inactive)
> 100 µM (inactive)
> 100 µM (inactive)

# batch size: 6; output GI50 per entry
1. CC(=O)O[C@@H]1C[C@@]23C[C@@]24CC[C@H](OC2OCC(O)C(O)C2O)C(C)(C)[C@@H]4CC=C3[C@]2(C)C[C@@H]3OC4(C[C@@H](C)[C@@H]3[C@@]12C)OC(O)[C@@]1(C)O[C@@H]41 (some centres not stated)
2. CCOC(=O)C1=NOC2(C=C(Br)C(=O)C(Br)=C2)C1
3. N#C[C@@H](c1ccccn1)c1ncccc1[N+](=O)[O-]
4. Clc1ccc(Oc2ccc(/N=C/c3ccc(Cl)cc3Cl)cc2Cl)cc1
5. C[C@H]1C(OCCOC2O[C@@H]3O[C@@]4(C)CC[C@H]5[C@H](C)CCC([C@H]2C)[C@@]35O4)O[C@@H]2O[C@@]3(C)CC[C@H]4[C@H](C)CCC1[C@@]24O3 (some centres not stated)
6. CC(/C=N\NC(=S)N1CCCCC1)=N/NC(=S)N1CCCCC1

Resp:
27.9 µM (inactive)
5.21 µM (inactive)
> 100 µM (inactive)
29.2 µM (inactive)
95.7 µM (inactive)
3.03 µM (inactive)

State recorded GI50 for all listed compounds.
1. CCn1c(O)c(C(=O)NC(C)c2ccc([N+](=O)[O-])cc2)c(=O)n(CC)c1=S (configuration not stated)
2. Cn1c(=O)c2nc(SCCN3CCOCC3)[nH]c2n(C)c1=S
3. C[C@H](OC(=O)/C=C/c1ccc(O)c(O)c1)[C@H](C)OC(=O)/C=C/c1ccc(O)c(O)c1

Resp:
1. 2.21 µM (inactive)
2. > 100 µM (inactive)
3. 10.4 µM (inactive)

Take each entry in turn and give its GI50.
1. N/N=C(\C(=O)Nc1ccc([N+](=O)[O-])cc1)C(C1=Nc2cc([N+](=O)[O-])ccc2NC1)[N+](=O)[O-] (configuration not stated)
2. CCOC(=O)CCC(NC(=O)C(Cc1ccc([N+](=O)[O-])cc1)NC(=O)OC(C)(C)C)C(=O)NC(CCC(=O)OCC)C(=O)OCC (configuration not stated) (Boc-[Phe(4-NO2)]-Glu(OEt)-Glu(OEt)-OEt; configuration not given here)
3. CC1(C)CCCCCCC2OC2CCCCCC(C)(C)C1=O (configuration not stated)

Resp:
["> 100 µM (inactive)", "22.2 µM (inactive)", "27.5 µM (inactive)"]

Look at each compound and report its GI50.
1. CC(C)(Cl)C(Br)CC/C(=C/CCl)CBr.CC(C)(Cl)C(Br)CC/C(=C\CCl)CBr (configuration not stated)
2. O=c1c2ccccc2c2ccccc2c(=O)n1Cc1ccc2c(c1)OCO2
3. CC1(C)CC[C@]2(C(=O)O)CC[C@]3(C)C(=CC[C@@H]4[C@@]5(C)CC[C@H](OC6OC(C(=O)O)C(O)C(O)C6O)C(C)(C)[C@@H]5CC[C@]43C)[C@@H]2C1 (some centres not stated)
4. Cc1ccc(O)c(C2=CC3=NNC(=O)C3C(c3cccc(Cl)c3)C2)c1 (configuration not stated)

Resp:
3.05 µM (inactive)
20.9 µM (inactive)
20.9 µM (inactive)
26.7 µM (inactive)

Quick batch: GI50 for everything below.
1. COc1cc2nc(Cl)nc(NS(=O)(=O)c3cc4ccccc4s3)c2cc1OC
2. CC(=O)Oc1cc(C)c(OC(C)=O)c2c1[C@H]1CC[C@]3(C)[C@@H](OC(C)=O)CC[C@H]3[C@@H]1CC2
3. O=S(=O)(N1CCCCN(S(=O)(=O)C(F)(F)F)CCCN(S(=O)(=O)C(F)(F)F)CCCCN(S(=O)(=O)C(F)(F)F)CCCN(S(=O)(=O)C(F)(F)F)CCCCN(S(=O)(=O)C(F)(F)F)CCCN(S(=O)(=O)C(F)(F)F)CCCCN(S(=O)(=O)C(F)(F)F)CCC1)C(F)(F)F
4. CCOC(=O)N1CCNCCN(C(=O)OCC)CCNCC1

Resp:
["22.9 µM (inactive)", "15.9 µM (inactive)", "> 31.6 µM (inactive)", "> 100 µM (inactive)"]
